# Assay Notes: Delivery vehicle size and polydispersity by dynamic light scattering
# Type: physicochemical
# Applied Conditions: DLS in PBS; peptoid:DSPC:Cholesterol:DMG-PEG2000 weight ratio 20:1.79:7.16:1.84, mRNA
Starred links: 1 amine or outer side, 2 acyl side, 3 side chain; linkers in the order of their positions; H or OH if unused. Non-standard residues stand in square brackets, D forms with d. Residues, ends and D or L forms follow the SMILES beside them. *: point of attachment. Gly(N-(3-decanoyloxypropyl)) = CCCCCCCCCC(=O)OCCCNCC(=O)O; N(3-imidazol-1-ylpropyl)Gly = O=C(O)CNCCCn1ccnc1; Gly(N-3-morpholinopropyl) = O=C(O)CNCCCN1CCOCC1; X4 = CCCCCCCCCCCC(=O)OCCN(CC(=O)[*:2])[*:1]; N(2-ethylhexyl)Gly = CCCCC(CC)CNCC(=O)O; N(CH(CH2OH)2)Gly = O=C(O)CNC(CO)CO; N(octyl)Gly = CCCCCCCCNCC(=O)O; NHexGly = CCCCCCNCC(=O)O; For = O=C*
Returns one of label 1 or label 0; label 1 when Particle Size is >= 90 nm.

Some solved cases for reference:
compound="CCCCCCCCCC(=O)OCCCN(CC(=O)N(CC(N)=O)CC(CC)CCCC)C(=O)CN(CCCCCCCC)C(=O)CN(CC(CC)CCCC)C(=O)CN(CCCOC(=O)CCCCCCCCC)C(=O)CN(CCCCCCCC)C(=O)CNCCCn1ccnc1 (centres unmarked) [Compound 111] (H-[N(3-imidazol-1-ylpropyl)Gly][N(octyl)Gly][Gly(N-(3-decanoyloxypropyl))][N(2-ethylhexyl)Gly][N(octyl)Gly][Gly(N-(3-decanoyloxypropyl))][N(2-ethylhexyl)Gly]-NH2)" answer_label="label 1"
compound="CCCCCCCC(=O)OCCCN(CC(=O)N(CCc1ccccc1)CC(=O)N(CC(=O)N(CCCN1CCOCC1)CC(=O)N(CC(=O)N(CCc1ccccc1)CC(=O)N(CCCOC(=O)CCCCCCC)CC(=O)N(CC(N)=O)CC(CC)CCCC)CC(CC)CCCC)CC(CC)CCCC)C(=O)CN(C=O)CC(CC)CCCC (centres unmarked)" answer_label="label 0"
compound="CCCCCCCCCC(=O)OCCCN(CC(=O)N(CCCOC(=O)CCCCCCCCC)CC(=O)N(CCCCCC)CC(=O)N(CCCOC(=O)CCCCCCCCC)CC(=O)N(CCCOC(=O)CCCCCCCCC)CC(=O)N(CCCCCC)CC(N)=O)C(=O)CN(C=O)CCCN1CCOCC1 [Compound 108] (For-[Gly(N-3-morpholinopropyl)][Gly(N-(3-decanoyloxypropyl))][Gly(N-(3-decanoyloxypropyl))][NHexGly][Gly(N-(3-decanoyloxypropyl))][Gly(N-(3-decanoyloxypropyl))][NHexGly]-NH2)" answer_label="label 1"
compound="CCCCCCCC(=O)OCCCN(C=O)CC(=O)N(CCCOC(=O)CCCCCCC)CC(=O)N(CCc1ccccc1)CC(=O)N(CC(=O)N(CCCn1ccnc1)CC(=O)N(CCCOC(=O)CCCCCCC)CC(=O)N(CCc1ccccc1)CC(=O)N(CCCOC(=O)CCCCCCC)CC(=O)N(CC(N)=O)CC(CC)CCCC)CC(CC)CCCC (centres unmarked)" answer_label="label 1"

Let's switch to this compound now.
Would you say CCCCCCCCCCCC(=O)OCCN(CC(=O)N(CC(=O)N(CC(=O)N(CCOC(=O)CCCCCCCCCCC)CC(=O)N(CC(N)=O)CC(CC)CCCC)CC(CC)CCCC)CC(CC)CCCC)C(=O)CN(CC(CC)CCCC)C(=O)CNC(CO)CO (centres unmarked) [Compound 3] (H-[N(CH(CH2OH)2)Gly][N(2-ethylhexyl)Gly][X4][N(2-ethylhexyl)Gly][N(2-ethylhexyl)Gly][X4][N(2-ethylhexyl)Gly]-NH2) shows Particle Size at minimum 90 nm?
label 0

---

For each record, write down the corresponding Total Flux (luciferase expression).
# Test system: firefly luciferase
# Assay Notes: In vivo firefly luciferase expression after intravenous injection of fLuc mRNA delivery vehicles (IVIS imaging)
# Parameters: species or system female Balb/c mice
# Applied Conditions: formulation recipe D22; fLuc mRNA, intravenous, Balb/c mice
Non-standard residues stand in square brackets, D forms with d. Residues, ends and D or L forms follow the SMILES beside them. *: point of attachment. Gly(N-(3-decanoyloxypropyl)) = CCCCCCCCCC(=O)OCCCNCC(=O)O; N(3-lauroyloxypropyl)Gly = CCCCCCCCCCCC(=O)OCCCNCC(=O)O; Gly(N-3-morpholinopropyl) = O=C(O)CNCCCN1CCOCC1; N(2-ethylhexyl)Gly = CCCCC(CC)CNCC(=O)O; N(CH(CH2OH)2)Gly = O=C(O)CNC(CO)CO; N(octyl)Gly = CCCCCCCCNCC(=O)O; NDecylGly = CCCCCCCCCCNCC(=O)O; For = O=C*

Below, 2 compounds whose answers are already recorded.
compound="CCCCCCCCCCN(CC(=O)N(CC(=O)N(CCCOC(=O)CCCCCCCCC)CC(N)=O)CC(CC)CCCC)C(=O)CN(CC(CC)CCCC)C(=O)CN(CCCOC(=O)CCCCCCCCC)C(=O)CN(CC(CC)CCCC)C(=O)CNC(CO)CO (stereo not drawn) [Compound 58] (H-[N(CH(CH2OH)2)Gly][N(2-ethylhexyl)Gly][Gly(N-(3-decanoyloxypropyl))][N(2-ethylhexyl)Gly][NDecylGly][N(2-ethylhexyl)Gly][Gly(N-(3-decanoyloxypropyl))]-NH2)" readout_value="3.94E+09 p/s"
compound="CCCCCCCCCC(=O)OCCCN(CC(=O)N(CC(=O)N(CC(=O)N(CCCOC(=O)CCCCCCCCC)CC(=O)N(CC(N)=O)CC(CC)CCCC)CC(CC)CCCC)CC(CC)CCCC)C(=O)CN(CC(CC)CCCC)C(=O)CNC(CO)CO (stereo not drawn) [Compound 5] (H-[N(CH(CH2OH)2)Gly][N(2-ethylhexyl)Gly][Gly(N-(3-decanoyloxypropyl))][N(2-ethylhexyl)Gly][N(2-ethylhexyl)Gly][Gly(N-(3-decanoyloxypropyl))][N(2-ethylhexyl)Gly]-NH2)" readout_value="1.77E+09 p/s"

Please find the next compound below.
Determine from records and report Total Flux (luciferase expression) for CCCCCCCCCCCC(=O)OCCCN(CC(=O)N(CC(N)=O)CC(CC)CCCC)C(=O)CN(CCCCCCCC)C(=O)CN(CC(CC)CCCC)C(=O)CN(CCCOC(=O)CCCCCCCCCCC)C(=O)CN(CCCCCCCC)C(=O)CN(C=O)CCCN1CCOCC1 (stereo not drawn) [Compound 74] (For-[Gly(N-3-morpholinopropyl)][N(octyl)Gly][N(3-lauroyloxypropyl)Gly][N(2-ethylhexyl)Gly][N(octyl)Gly][N(3-lauroyloxypropyl)Gly][N(2-ethylhexyl)Gly]-NH2)
1.96E+09 p/s

---

# Assay Notes: Delivery vehicle size and polydispersity by dynamic light scattering
# Type: physicochemical
# Applied Conditions: DLS in PBS; peptoid:DSPC:Cholesterol:DMG-PEG2000 weight ratio 20:1.79:7.16:1.84, mRNA
Non-standard residues stand in square brackets, D forms with d. Residues, ends and D or L forms follow the SMILES beside them. Gly(N-(CH2)3O-octanoyl) = CCCCCCCC(=O)OCCCNCC(=O)O; N(2-ethylhexyl)Gly = CCCCC(CC)CNCC(=O)O; Gly(N-dodecyl) = CCCCCCCCCCCCNCC(=O)O; N(CH(CH2OH)2)Gly = O=C(O)CNC(CO)CO
Outcome Measure: PDI
Give bare numbers.

compound="CCCCCCCCCCCC(=O)OCCCN(CC(=O)N(CC(=O)N(CC(=O)N(CCCn1ccnc1)CC(=O)N(CC(=O)N(CC(=O)N(CCCOC(=O)CCCCCCCCCCC)CC(=O)N(CC(N)=O)CC(CC)CCCC)Cc1ccco1)CC(CC)CCCC)CC(CC)CCCC)Cc1ccco1)C(=O)CN(C=O)CC(CC)CCCC (centres unmarked) [Compound 100]" outcome_measure=PDI readout_value=0.103

Determine from records and report PDI for CCCCCCCCCCCCN(CC(=O)N(CC(N)=O)CC(CC)CCCC)C(=O)CN(CC(CC)CCCC)C(=O)CN(CC(CC)CCCC)C(=O)CN(CCCOC(=O)CCCCCCC)C(=O)CN(CC(CC)CCCC)C(=O)CNC(CO)CO (centres unmarked) [Compound 14] (H-[N(CH(CH2OH)2)Gly][N(2-ethylhexyl)Gly][Gly(N-(CH2)3O-octanoyl)][N(2-ethylhexyl)Gly][N(2-ethylhexyl)Gly][Gly(N-dodecyl)][N(2-ethylhexyl)Gly]-NH2)
0.090

---

# Assay Notes: Delivery vehicle size and polydispersity by dynamic light scattering
# Type: physicochemical
# Applied Conditions: DLS in PBS; peptoid:DSPC:Cholesterol:DMG-PEG2000 weight ratio 20:1.79:7.16:1.84, mRNA
Non-standard residues stand in square brackets, D forms with d. Residues, ends and D or L forms follow the SMILES beside them. *: point of attachment. N(3-lauroyloxypropyl)Gly = CCCCCCCCCCCC(=O)OCCCNCC(=O)O; N(2-decanoyloxyethyl)Gly = CCCCCCCCCC(=O)OCCNCC(=O)O; N(3-imidazol-1-ylpropyl)Gly = O=C(O)CNCCCn1ccnc1; N(2-ethylhexyl)Gly = CCCCC(CC)CNCC(=O)O; For = O=C*
Outcome Measure: PDI
Answers are plain numbers.

compound="CCCCCCCCCCCC(=O)OCCCN(CC(=O)N(CC(=O)N(CCCn1ccnc1)CC(=O)N(CC(=O)N(CCCOC(=O)CCCCCCCCCCC)CC(=O)N(CC(N)=O)CC(CC)CCCC)CC(CC)CCCC)CC(CC)CCCC)C(=O)CN(C=O)CC(CC)CCCC (stereo not drawn) [Compound 82] (For-[N(2-ethylhexyl)Gly][N(3-lauroyloxypropyl)Gly][N(2-ethylhexyl)Gly][N(3-imidazol-1-ylpropyl)Gly][N(2-ethylhexyl)Gly][N(3-lauroyloxypropyl)Gly][N(2-ethylhexyl)Gly]-NH2)" readout_value=0.163
compound="CCCCCCCCCC(=O)OCCN(CC(=O)N(CCOC(=O)CCCCCCCCC)CC(=O)N(CC(=O)N(CCOC(=O)CCCCCCCCC)CC(=O)N(CCOC(=O)CCCCCCCCC)CC(=O)N(CC(N)=O)CC(CC)CCCC)CC(CC)CCCC)C(=O)CNCCCn1ccnc1 (stereo not drawn) [Compound 79] (H-[N(3-imidazol-1-ylpropyl)Gly][N(2-decanoyloxyethyl)Gly][N(2-decanoyloxyethyl)Gly][N(2-ethylhexyl)Gly][N(2-decanoyloxyethyl)Gly][N(2-decanoyloxyethyl)Gly][N(2-ethylhexyl)Gly]-NH2)" readout_value=0.108

Please find the next compound below.
Determine from records and report PDI for CCCCCCCC(=O)OCCCN(C=O)CC(=O)N(CCCOC(=O)CCCCCCC)CC(=O)N(CCc1ccccc1)CC(=O)N(CC(=O)N(CCCn1ccnc1)CC(=O)N(CCCOC(=O)CCCCCCC)CC(=O)N(CCc1ccccc1)CC(=O)N(CCCOC(=O)CCCCCCC)CC(=O)N(CC(N)=O)CC(CC)CCCC)CC(CC)CCCC (stereo not drawn) [Compound 123]
0.201
